- EXPERIMENTAL DETAILS: chemical genetic growth profiling, strain panel (AID 1159580);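 further: tested at 20 µM; growth read once vehicle control cultures reached saturation at 30 °C; 1 = growth at the plate median or of vehicle wells; lower values mean less growth of the strain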
- MEASUREMENT CONDITIONS: S. cerevisiae deletion strains, growth OD, locus YDR162C, strain NBP2
The campaign covered roughly 5,500 compounds. About 2,000 (36%) were called active. Not shown: some 18% with an inconclusive outcome. No stated cut-off is given here; in the data, active means normalized growth mostly below about 0.91 (no sharp cut-off); inconclusive means no clear call, values can overlap the other calls; inactive means mostly above about 0.92. The list shows a part of the results.
The reply should be one of these categories: 1 (active), -1 (inactive)

// below: answered compounds
COMPOUND: CC(=O)OCC(=O)[C@@]1(O)CCC2C3CCC4=CC(=O)CC[C@]4(C)C3[C@@H](O)C[C@@]21C (stereo partly drawn)
CLASS ASSIGNMENT: -1
//
COMPOUND: CC(=O)N[C@@H](Cc1c[nH]c2ccccc12)C(=O)O
CLASS ASSIGNMENT: -1
//
COMPOUND: NCCc1c[nH]c2ccccc12
CLASS ASSIGNMENT: -1

Query: Hi team, can someone confirm the assay call for `CN[C@@H]1[C@@H](O[C@H]2O[C@H](CO)[C@@H](N)[C@H](O)[C@H]2O)O[C@H]2C[C@@H](N)[C@H](O[C@H]3[C@H](O)[C@@H](O)[C@H](N)C[C@@H]3N)O[C@@H]2[C@@H]1O` ?
Response: -1

Query: For this compound, state the assay outcome: C[C@]12CCC(=O)C=C1CCC1C2[C@@H](O)C[C@@]2(C)C1CC[C@]2(O)C(=O)COC(=O)CCC(=O)O (stereo partly drawn)
Response: -1

Query: Would you mind telling me which call this test gave `CCCCc1nc(Cl)c(CO)n1Cc1ccc(-c2ccccc2-c2nn[nH]n2)cc1` ?
Response: -1

Query: Lab log entry: C=C(C)[C@@H]1CC[C@]2(CO)CC[C@]3(C)[C@H](CCC4[C@@]5(C)CC[C@H](O)C(C)(C)C5CC[C@]43C)C12 (stereo partly drawn) — outcome as called in the assay?
Response: -1

====

- EXPERIMENTAL DETAILS: chemical genetic growth profiling, strain panel (AID 1159580);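 further: tested at 20 µM; growth read once vehicle control cultures reached saturation at 30 °C; 1 = growth at the plate median or of vehicle wells; lower values mean less growth of the strain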
- MEASUREMENT CONDITIONS: S. cerevisiae deletion strains, growth OD, locus YOR083W, strain WHI5, active compounds read low
Out of some 5,500 compounds screened, about 2,000 (36%) were called active. Another 18% or so got no clear call; they are omitted. The list shows a part of the results.
MEASURED METRIC: normalized growth
Number only, no unit.

COMPOUND: CC1=CC2C(C(C)C)CCC(C)(O)C2CC1 (centres undefined)
normalized growth: 0.964

COMPOUND: O=c1c(O)c(-c2ccc(O)c(O)c2)oc2cc(O)ccc12
normalized growth: 0.984

COMPOUND: COc1cc(-c2oc3cc(O)ccc3c(=O)c2O)ccc1O
normalized growth: 0.85

COMPOUND: C=C(C)[C@H]1Cc2c(ccc3c2O[C@@H]2COc4cc(OC)c(OC)cc4[C@@H]2C3=O)O1
normalized growth: 0.969

COMPOUND: CC[C@H]1OC(=O)[C@H](C)[C@@H](O[C@H]2C[C@@](C)(OC)[C@@H](O)[C@H](C)O2)[C@H](C)[C@@H](O[C@@H]2O[C@H](C)C[C@H](N(C)C)[C@H]2O)[C@](C)(O)C[C@@H](C)[C@@H]2N[C@@H](COCCOC)O[C@H]([C@H]2C)[C@]1(C)O
normalized growth: 0.996

Query: Sample `COc1ccc(-c2oc3ccccc3c(=O)c2O)cc1OC` — what was its normalized growth?
Response: 0.617

Query: What does the record list as normalized growth for `COc1cc(/C=C/C(=O)N2CCC=CC2=O)cc(OC)c1OC` ?
Response: 0.951

Query: Which measured normalized growth value corresponds to CCc1cccc2c3c([nH]c12)C(CC)(CC(=O)O)OCC3 (centres undefined) ?
Response: 0.987

Query: # lookup: normalized growth of `OCCN1CCN(CCCN2c3ccccc3Sc3ccc(C(F)(F)F)cc32)CC1`
Response: 0.855

Entry source: PubChem BioAssay AID1159580
